Listed here: items and their measured t1/2.
Biological target: T1, human dimeric EGFR (EGFR.mFc) (human)
T1 construct: Soluble dimeric EGFR construct
Assay: SPR 37C, mAb captured by anti-human Fc, EGFR.mFc analyte
Note: unit h is implicit; provide only the numeric part.

Below are worked cases with known answers.
H1H153P (antibody, human IgG1, V domains shown, Human IgG1 Fc (H1H)) VH: QVQLVESGGGVVQPGKSLRLSCAASGFTFSIYGMNWVRQAPGKGLDWVAVISDDGSNKDYVDSVRGRFTISRDNSKNTLYLQMNSLSAEDTAVYYCAKDRITGTHYYGLDVWGQGTTVTVSS VL: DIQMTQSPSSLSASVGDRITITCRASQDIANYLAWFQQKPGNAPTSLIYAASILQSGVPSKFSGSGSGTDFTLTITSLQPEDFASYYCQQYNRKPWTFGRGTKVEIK :: 23.4
H1H147P (antibody, human IgG1, V domains shown, Human IgG1 Fc (H1H)) VH: EVQLVESGPGLVQPSQTLSLTCTVSGGSINSGDFYWSWIRQHPGKGLEWIGHIYYSGITYYSPSLKSRLTISVDTSKNQFSLKLSSVTAADTAVYYCARKRVTGEVDYWGQGTLVTVSS VL: DIQMTQSPSSLSASVGDRITITCQANQDINNYLNWYQQKPGKAPKLLISDASNLETGVPSRFSGSGSGTDFTFTISSLQPEDIATYYCQQYDNLPPTFGQGTRLEIKR :: 15.2
H1H102N (antibody, human IgG1, V domains shown, Tested in human IgG1 Fc format (H1H); also called H1M102N) VH: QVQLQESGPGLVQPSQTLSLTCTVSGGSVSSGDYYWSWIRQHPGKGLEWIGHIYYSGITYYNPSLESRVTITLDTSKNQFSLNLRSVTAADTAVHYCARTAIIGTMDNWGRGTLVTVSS VL: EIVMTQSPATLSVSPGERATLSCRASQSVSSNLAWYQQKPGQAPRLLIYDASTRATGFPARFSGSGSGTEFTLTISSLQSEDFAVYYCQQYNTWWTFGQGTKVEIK :: 3.43
H1H161P (antibody, human IgG1, V domains shown, Human IgG1 Fc (H1H)) VH: QVQLVESGGGVVQPGRSLRLSCAASGFTFSNYGMYWVRQAPGKGLEWVTFISYDGSNKNYVDSMKGRFTISRDNSKNTLYLQMNSLRVEDTAVYYCAKDRISGTPWYGMDVWGQGTTVTVSS VL: DIQMTQSPSSLSASVGDRVTITCRASQDIADYLAWFQQKPGKAPKSLIFAASSLESWVPLKFSGSGSGTDFTLTISSLQPEDFATYYCQQYSRFPITFGQGTKVEIK :: 69.8

Prompt: Query: t1/2; subject: H1H159P (antibody, human IgG1, V domains shown, Human IgG1 Fc (H1H)) VH: EVQLVESGGGLVQPGGSLRLSCAASRFTFTNYWMSWVRQAPGKGLEWVAKIKQDGSEKYYLDSVKDRFTISRDNAKNSLYLQMNSLRAEDTAVYYCASSSSWYDYYYGMDVWGHGTTVTVSS VL: EIVLTQSPDFQSVTPKEKVTITCRASQSIGTNLHWYQQRPDQSPKLLIKFASQSFSGVPSRFSGSGSGTDFTLTINSLEAEDAATYYCHQTNFLPHTFGGGTKVEIKR
Response: 34.2

Prompt: Given the entry H1H142P (antibody, human IgG1, V domains shown, Human IgG1 Fc (H1H)) VH: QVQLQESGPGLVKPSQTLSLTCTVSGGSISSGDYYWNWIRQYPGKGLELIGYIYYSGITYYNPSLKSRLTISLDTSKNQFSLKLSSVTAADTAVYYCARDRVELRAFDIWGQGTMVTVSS VL: DIQMTQSPSSLSASIGDRITISCQASQDINNYLNWYQQKPGKAPKLLIYDASNLETGIPSRFSGSGSGTDFTFTISGLQPEDIATYYCQHYDSLPLTFGQGTRLEIK , report its measured t1/2.
Response: 16.1

Prompt: I have this binder here, H1H089N (antibody, human IgG1, V domains shown, Tested in human IgG1 Fc format (H1H); also called H1M089N) VH: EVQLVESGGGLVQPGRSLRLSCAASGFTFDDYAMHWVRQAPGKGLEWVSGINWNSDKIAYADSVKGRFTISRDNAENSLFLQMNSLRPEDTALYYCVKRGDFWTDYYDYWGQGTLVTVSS VL: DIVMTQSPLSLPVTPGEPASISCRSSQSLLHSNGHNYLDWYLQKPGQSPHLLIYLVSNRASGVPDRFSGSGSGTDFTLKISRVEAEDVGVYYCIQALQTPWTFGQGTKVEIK , and I need its recorded t1/2.
Response: 4.28

Prompt: # input binder: H1H163P (antibody, human IgG1, V domains shown, Human IgG1 Fc (H1H)) VH: QVQLVESGGGVVQPGRSLRLSCAASGFTFSNYGMHWVRQAPGKGLEWVTLIEHDGSNKNYVDSVKGRFTISRDNSKNTLYLQMNSLRVEDTAVYYCAKDRITGTPWYGMDVWGQGTTVTVSS VL: DIQMTQSPSSLSASVGDRVTITCRASQDIADYLAWFQQKPGKAPKSLIFAASSLESWVPLKFSGSGSGTDFTLTISSLQPEDFATYYCQQYNRFPITFGQGTRLEIK ; wanted: its t1/2
Response: 90.8

Prompt: Could you tell me which t1/2 is on file for H1H141P (antibody, human IgG1, V domains shown, Human IgG1 Fc (H1H)) VH: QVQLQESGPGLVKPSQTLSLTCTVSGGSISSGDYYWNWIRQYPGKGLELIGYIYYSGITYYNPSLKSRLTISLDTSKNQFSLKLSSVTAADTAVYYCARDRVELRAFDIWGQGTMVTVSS VL: DIQMTQSPSSLSASVGDRVTITCQASQDISNYLNWYQQKPGKAPKLLINDASNLETGVPSRFSGSGSGTDFTFTISSLQPEDIATYYCQHYDSLPLTFGQGTRLEIK ?
Response: 25.6

Prompt: So what does the record say about t1/2 for H1H171P (antibody, human IgG1, V domains shown, Human IgG1 Fc (H1H)) VH: QVQLVESGGGVVQPGRSLRLSCAASGFTFSIYGMNWVRQGPGKGLDWVAVISDDGSNKDYVDSVRGRFTISRDNSKNTLYLQMNSLSAEDTAVYYCAKDRITGTHYYGMDVWGQGTTVTVSS VL: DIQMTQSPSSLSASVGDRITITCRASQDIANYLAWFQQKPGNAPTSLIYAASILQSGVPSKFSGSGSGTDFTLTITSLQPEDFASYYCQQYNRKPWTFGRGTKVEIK ?
Response: 5.53
